Recorded measurements of hERG current change (%, negative = inhibition) at 10uM, one per entry
Target: human ether-à-go-go-related gene (hERG) potassium channel (human, UniProt Q12809);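 note: peak tail current of the secondary pulse compared with the same well before compound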
Sequence (Q12809 whole entry, looked up): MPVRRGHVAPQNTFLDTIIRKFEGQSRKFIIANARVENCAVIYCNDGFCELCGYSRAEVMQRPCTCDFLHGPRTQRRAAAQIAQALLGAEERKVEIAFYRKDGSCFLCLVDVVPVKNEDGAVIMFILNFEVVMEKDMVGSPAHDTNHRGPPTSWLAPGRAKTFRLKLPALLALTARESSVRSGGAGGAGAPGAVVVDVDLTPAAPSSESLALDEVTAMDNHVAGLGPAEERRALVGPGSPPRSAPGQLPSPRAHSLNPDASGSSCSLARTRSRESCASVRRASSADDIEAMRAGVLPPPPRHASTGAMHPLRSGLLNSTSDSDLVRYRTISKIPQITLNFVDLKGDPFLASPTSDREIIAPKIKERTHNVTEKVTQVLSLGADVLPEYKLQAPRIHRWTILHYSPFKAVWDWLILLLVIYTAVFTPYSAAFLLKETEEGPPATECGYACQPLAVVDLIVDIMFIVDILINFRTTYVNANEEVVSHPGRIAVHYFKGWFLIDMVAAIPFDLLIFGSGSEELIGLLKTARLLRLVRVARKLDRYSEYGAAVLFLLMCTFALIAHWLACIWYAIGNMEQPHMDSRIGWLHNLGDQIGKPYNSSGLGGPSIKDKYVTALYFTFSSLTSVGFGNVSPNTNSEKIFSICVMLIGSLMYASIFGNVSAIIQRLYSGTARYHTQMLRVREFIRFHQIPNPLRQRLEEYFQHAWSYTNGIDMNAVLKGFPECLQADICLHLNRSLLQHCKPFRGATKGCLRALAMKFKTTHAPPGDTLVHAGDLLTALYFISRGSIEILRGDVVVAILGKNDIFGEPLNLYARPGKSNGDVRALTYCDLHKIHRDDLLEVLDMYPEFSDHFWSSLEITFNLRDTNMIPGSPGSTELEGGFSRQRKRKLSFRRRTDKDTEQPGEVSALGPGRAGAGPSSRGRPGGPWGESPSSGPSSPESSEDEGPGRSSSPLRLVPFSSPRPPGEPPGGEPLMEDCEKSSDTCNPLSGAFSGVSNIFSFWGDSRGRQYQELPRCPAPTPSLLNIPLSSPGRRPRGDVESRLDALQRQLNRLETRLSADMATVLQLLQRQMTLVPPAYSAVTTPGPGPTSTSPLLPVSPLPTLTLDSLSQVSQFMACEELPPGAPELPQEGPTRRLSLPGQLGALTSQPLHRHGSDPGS
Assay: primary screen, population patch clamp on CHO cells stably expressing hERG; higher = less effect of the substance
In all, about 310,000 compounds went through this assay and about 14,000 (4.5%) showed an effect of 50% or more. Effects have a minus sign here. The sample holds strong results, similar compounds and a random draw of the others, so the mix is not that of the screen.
Write the number in % without appending the unit.

compound	measured-on	measurement
CCOC(=O)Nc1sc(C(=O)N(C)C)c(C)c1C(=O)OCC	human ether-à-go-go-related gene (hERG) potassium channel (human, UniProt Q12809)	5.73
C=CCn1c(SCC(=O)c2cccs2)nc2sc(C)cc2c1=O	human ether-à-go-go-related gene (hERG) potassium channel (human, UniProt Q12809)	1.56
COc1cc(/C=N/NC(=O)Cc2ccccc2)ccc1Oc1ccc([N+](=O)[O-])cc1[N+](=O)[O-]	human ether-à-go-go-related gene (hERG) potassium channel (human, UniProt Q12809)	1.03
Cc1cc(C)cc(N(CC(=O)NC2CCCC2)C(=O)CNC(=O)c2cccs2)c1	human ether-à-go-go-related gene (hERG) potassium channel (human, UniProt Q12809)	18
CCC(Sc1ccc2nnc(-c3cccnc3)n2n1)C(=O)OC (stereo not drawn)	human ether-à-go-go-related gene (hERG) potassium channel (human, UniProt Q12809)	-47
Nc1c2c(nc3c1CCCC3)CCCC2.O=C(O)c1cc[nH]c(=O)c1	human ether-à-go-go-related gene (hERG) potassium channel (human, UniProt Q12809)	-10.1
COc1ccc(C(=O)N=C2SC3CS(=O)(=O)CC3N2c2ccccc2)cc1OC (stereo not drawn)	human ether-à-go-go-related gene (hERG) potassium channel (human, UniProt Q12809)	11
COc1ccc(CCN2CC(C(=O)N(C)Cc3ccccc3OC)CCC2=O)cc1 (stereo not drawn)	human ether-à-go-go-related gene (hERG) potassium channel (human, UniProt Q12809)	-29.4
CCN1C(=O)c2cccc3c(NC(=O)c4ccc(OC)c(OC)c4)ccc1c23	human ether-à-go-go-related gene (hERG) potassium channel (human, UniProt Q12809)	-68.3
C=C1CCN([C@@H](CC(C)C)C(=O)N2CCCC2)S(=O)(=O)c2ccccc21	human ether-à-go-go-related gene (hERG) potassium channel (human, UniProt Q12809)	-54.7

Item: COc1ccc(C(=O)N/N=C(\Cc2ncc[nH]2)c2ccccc2)cc1 | hERG current change (%, negative = inhibition) at 10uM: 2.43

Lab note: O=C(CCCCn1c(=O)[nH]c2ccccc2c1=O)NCc1ccc2c(c1)OCO2 gave hERG current change (%, negative = inhibition) at 10uM of -6.99

response.value for CC(OC(=O)c1ccc(S(=O)(=O)NCc2ccco2)cc1)C(=O)Nc1ccc(Cl)cn1 (stereo not drawn) (field: hERG current change (%, negative = inhibition) at 10uM) = -39.8

So for COc1ccccc1CN1CC(C(=O)N(C)CCOc2ccccc2)CCC1=O (stereo not drawn) , the logged hERG current change (%, negative = inhibition) at 10uM turned out to be -9.29

Note to self: hERG current change (%, negative = inhibition) at 10uM recorded for CN(CCOc1ccccc1)C(=O)C1CCC(=O)N(CCCN2CCCC2=O)C1 (stereo not drawn) was 27.5

Field hERG current change (%, negative = inhibition) at 10uM (entry O=C(NCc1ccc(-c2csnn2)cc1)C1CC1 ) reads 7.09

# compound CC(C)c1ccc(/C=C/C(=O)N2CCc3ccccc3C2)cc1 ; its hERG current change (%, negative = inhibition) at 10uM = 3.46

The recorded hERG current change (%, negative = inhibition) at 10uM for O=C(Cn1c(=O)[nH]c2ccccc2c1=O)N1CCN(Cc2ccc3c(c2)OCO3)CC1 is 0.172
